Entry source: PubChem BioAssay (NCI)

Task for the reader: assign each of the following molecules its reported growth.
Test system: MALME-3M melanoma
assay_summary: NCI-60 one-dose screen, 48 h (100 = growth as untreated, 0 = no growth, -100 = all killed)
settings: 10 µM unless noted
Compounds without any hit were thinned out: in the full panel of roughly 83,000, 20% have a hit. Active and inactive are the calls of the source. Rule for the calls: active = growth percent below 10; inactive = the rest.

// below: answered molecules
molecule: CC1=C(O)[C@@](C)(CCCCC[C@H](C)CCCCc2ccc(O)cc2)OOC1=O
assay_system: MALME-3M melanoma
recorded_value: 87.3% (inactive)
--
molecule: N#CC1(c2ccccc2)CCN(Cc2ccccc2)CC1
assay_system: MALME-3M melanoma
recorded_value: 138% (inactive)
--
molecule: CC1=C(CCCNS(C)(=O)=O)C2=C(C)C3(CC3)[C@@](C)(O)C(=O)C2=C1
assay_system: MALME-3M melanoma
recorded_value: -63.1% (active)
--
molecule: C[CH2][Sn]([Cl])([Cl])[CH2]C.Oc1ccccc1C=NCCN=Cc1ccccc1O
assay_system: MALME-3M melanoma
recorded_value: 95.6% (inactive)

Look at each molecule and report its growth.
1. O=C(O)C(O)C(O)C1[O][Sb]([c]2ccc([N+](=O)[O-])cc2)[O]C1CO (configuration not stated)
2. C[S+]1C=Cc2ccccc2C1c1ccc(Cl)cc1 (configuration not stated)
3. O=[N+]([O-])c1cc(I)cc([N+](=O)[O-])c1
4. Cc1c2cc(Cl)c3ccccc3c2c[n+]2ccccc12

116% (inactive)
103% (inactive)
101% (inactive)
-16.2% (active)

Look at each molecule and report its growth.
1. COC1CC2c3ccccc3C1C(C)=[N+]2C (configuration not stated)
2. CCOC(=O)c1c(C)n(Cc2ccccc2)c2cc(CN(C)C)c(O)cc12
3. C[N+]12CN3CN(CN(C3)C1)C2

1: 88.7% (inactive); 2: 103% (inactive); 3: 111% (inactive)

Look at each molecule and report its growth.
1. CCNc1nc(Cl)nc(NCC)n1
2. [Cl][Hg][c]1cc[c]([Hg][Cl])o1
3. ClCCN(CCCl)c1ccc(/C=N/Nc2ncnc3nc[nH]c23)cc1
4. CC[C@H](C)[C@H](NC(=O)[C@H]1CCCCN1C)C(=O)N(C)[C@H](C[C@@H](OC(C)=O)c1nc(C(=O)NC23CC(C(=O)OC)(C2)C3)cs1)C(C)C
5. COc1ccc2c(c1)c(-c1nc(-c3cn(C)c4ncccc34)cs1)cn2CCCCN1CCCCC1
6. COc1ccc(C/C(C)=C(\c2ccc(OCCN3CCOCC3)cc2)c2ccc(OC(=O)Cc3ccccc3)cc2)cc1
7. COC(=O)[C@@H](C)C[C@H](Cc1ccccc1)NC(=O)c1nc([C@@H](C[C@H](C(C)C)N(C)C(=O)[C@@H](NC(=O)[C@H]2CCCCN2C)C(C)C)OC(C)=O)sc1C

133% (inactive)
-51.6% (active)
106% (inactive)
67.3% (inactive)
-73.9% (active)
-79.5% (active)
54% (inactive)

Look at each molecule and report its growth.
1. C=C1C[C@](OC)([C@H](O)C(=O)N[C@@H](OC)[C@@H]2C[C@@H](O)C(C)(C)[C@@H](C[C@@H](COC)OC)O2)O[C@H](C)[C@@H]1C
2. c1ccc(CSC(c2ccccc2)c2ccccc2)cc1

["-71.1% (active)", "110% (inactive)"]
